Target: Ephrin type-B receptor 3 (Homo sapiens, UniProt P54753)
Sequence (P54753 whole entry): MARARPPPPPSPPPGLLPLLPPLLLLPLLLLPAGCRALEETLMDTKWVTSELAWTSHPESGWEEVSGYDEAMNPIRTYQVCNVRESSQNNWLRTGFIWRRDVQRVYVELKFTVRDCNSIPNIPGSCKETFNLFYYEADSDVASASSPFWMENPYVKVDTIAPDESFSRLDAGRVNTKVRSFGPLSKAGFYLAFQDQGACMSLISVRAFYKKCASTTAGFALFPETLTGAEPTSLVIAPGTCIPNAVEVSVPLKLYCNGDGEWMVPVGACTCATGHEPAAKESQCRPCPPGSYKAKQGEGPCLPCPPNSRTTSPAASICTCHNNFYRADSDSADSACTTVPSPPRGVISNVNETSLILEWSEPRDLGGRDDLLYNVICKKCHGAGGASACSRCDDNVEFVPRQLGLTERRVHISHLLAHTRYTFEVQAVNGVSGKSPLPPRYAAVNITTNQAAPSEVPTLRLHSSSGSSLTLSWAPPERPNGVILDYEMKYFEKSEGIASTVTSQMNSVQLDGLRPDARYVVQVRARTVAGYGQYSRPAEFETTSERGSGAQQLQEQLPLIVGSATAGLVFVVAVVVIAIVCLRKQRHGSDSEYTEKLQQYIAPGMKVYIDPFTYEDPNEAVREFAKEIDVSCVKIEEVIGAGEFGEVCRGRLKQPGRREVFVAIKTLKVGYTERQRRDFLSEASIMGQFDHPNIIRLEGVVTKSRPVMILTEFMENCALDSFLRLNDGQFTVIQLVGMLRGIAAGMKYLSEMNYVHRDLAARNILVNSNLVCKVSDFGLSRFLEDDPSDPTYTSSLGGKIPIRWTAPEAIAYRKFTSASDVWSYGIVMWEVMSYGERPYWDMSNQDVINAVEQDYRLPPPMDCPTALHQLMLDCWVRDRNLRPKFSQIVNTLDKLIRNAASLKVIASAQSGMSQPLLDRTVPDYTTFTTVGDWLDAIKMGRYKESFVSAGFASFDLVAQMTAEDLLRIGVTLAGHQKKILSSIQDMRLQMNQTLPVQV
Experiment: Inhibition of Nano Luc-fused full length C-terminal EPHB3 (unknown origin) expressed in HEK293T cells using NanoGlo as substrate incubated for 2 hrs in presence of tracer by NanoBRET assay
QUANTITY NAME: IC50 (µM)
Answers are plain numbers, in µM.

Cc1ccc(C(=O)Nc2cccc(C(F)(F)F)c2)cc1Nc1nc(-c2cccnc2)nc2nn(C)cc12 = 0.191

Moving on to the next molecule.
Request: Identify measured IC50 corresponding to "Cc1ccc(C(=O)Nc2cccc(C(F)(F)F)c2)cc1Nc1nc(-c2cccnc2)nc2c1cnn2C"
Result: 0.006
